Parameter pKd: see the listing below.
- systemUnderTest: T1, human FolR1 ECD-AcTev-Fcknob-Avi tag + Fc hole, biotinylated monomeric Fc fusion (human, UniProt P0DOX5 223-449 = IgG part)
- T1 construct: also called huFolR1; huFolR1-Fc
- methodDescription: SPR ProteOn, Fab analyte;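 further: recombinant antigens immobilized, purified Fab two-fold dilutions injected in parallel channels, 200 s association and 600 s dissociation, buffer-only channel as in-line reference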
pKd: −log10 of the molar value.

{"binder": "16F12 Fab (Fab, V domains shown) VH: QVQLVQSGAEVKKPGASVKVSCKASGYTFTSYYMHWVRQAPGQGLEWMGIINPSGGSTSYAQKFQGRVTMTRDTSTSTVYMELSSLRSEDTAVYYCARNFTVLRVPFDYWGQGTLVTVSS VL: QAVVTQEPSLTVSPGGTVTLTCGSSTGAVTTSNYANWVQEKPGQAFRGLIGGTNKRAPGTPARFSGSLLGGKAALTLSGAQPEDEAEYYCALWYSNLWVFGGGTKLTVL", "pKd": 7.17}
{"binder": "21D1 Fab (Fab, V domains shown) VH: QVQLVQSGAEVKKPGASVKVSCKASGYTFTSYYMHWVRQAPGQGLEWMGIINPSGGSTSYAQKFQGRVTMTRDTSTSTVYMELSSLRSEDTAVYYCARNYYVGVSPFDYWGQGTLVTVSS VL: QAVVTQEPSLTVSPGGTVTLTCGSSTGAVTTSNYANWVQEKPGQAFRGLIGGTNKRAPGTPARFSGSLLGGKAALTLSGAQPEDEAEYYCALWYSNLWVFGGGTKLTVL", "pKd": 7.20}
{"binder": "15B6 Fab (Fab, V domains shown) VH: QVQLVQSGAEVKKPGASVKVSCKASGYTFTSYYMHWVRQAPGQGLEWMGIINPSGGSTSYAQKFQGRVTMTRDTSTSTVYMELSSLRSEDTAVYYCARNYYIGIVPFDYWGQGTLVTVSS VL: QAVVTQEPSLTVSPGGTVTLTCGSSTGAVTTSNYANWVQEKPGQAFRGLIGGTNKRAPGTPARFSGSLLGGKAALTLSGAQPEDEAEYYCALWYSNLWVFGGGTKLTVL", "pKd": 7.72}
